# Tested on: postsynaptic QUIS-R of locust leg muscle
# experimentalDetails: Antagonism of neurally-evoked twitch contraction of locust retractor unguis nerve-muscle preparation
# Design: species or system Schistocerca gregaria
# cond: Table 7, mono-acyl spermine analogues; read-out: IC50
Please provide measured pIC50 for the entries that follow.
Numbers only, as −log10 of the molar value.

[
  {
    "compound": "CCCCCCCCCC(=O)NCCCNCCCCNCCCN [drawing 78]",
    "pIC50": 5.00
  }
]

Now for the compound whose pIC50 we want.
Please give the measured pIC50 for this compound: CCCCCCC(=O)NCCCNCCCCNCCCN [drawing 77]
4.00

----------
Kindly state IC50 for each of the entries shown.
# System: postsynaptic QUIS-R of locust leg muscle
# experimentalDetails: Antagonism of neurally-evoked twitch contraction of locust retractor unguis nerve-muscle preparation
# Set-up: species or system Schistocerca gregaria
# cond: Table 3, region C modifications; read-out: IC50
One number for each entry, in µM.

// each compound listed below needs its IC50
1. NCCCNCCCCNCCCNC(=O)[C@H](Cc1ccc(O)cc1)NC(=O)CCCNc1ccc([N+](=O)[O-])cc1[N+](=O)[O-]
2. [N-]=[N+]=C(C(=O)NCCCC(=O)N[C@@H](Cc1ccc(O)cc1)C(=O)NCCCNCCCCNCCCN)C(F)(F)F [drawing 51]

[53, 290]

Please state, for each entry, its recorded IC50.
1. NCCCNCCCCNCCCNC(=O)[C@H](Cc1ccc(O)cc1)NC(=O)Cc1ccccc1 [drawing 48]
2. NCCCNCCCCNCCCNC(=O)[C@H](Cc1ccc(O)cc1)NC(=O)C1CCCCC1 [drawing 46]
3. C/C=C/C=C/C(=O)N[C@@H](Cc1ccc(O)cc1)C(=O)NCCCNCCCCNCCCN [drawing 45]
4. NCCCNCCCCNCCCNC(=O)[C@H](Cc1ccc(O)cc1)NC(=O)/C=C/c1ccccc1 [drawing 49]
5. NCCCNCCCCNCCCNC(=O)[C@H](Cc1ccc(O)cc1)NC(=O)c1ccccc1 [drawing 47]
6. CC(=O)N[C@@H](Cc1ccc(O)cc1)C(=O)NCCCNCCCCNCCCN [drawing 42]
7. CCCCCCCCCC(=O)N[C@@H](Cc1ccc(O)cc1)C(=O)NCCCNCCCCNCCCN
8. CCCCCCC(=O)N[C@@H](Cc1ccc(O)cc1)C(=O)NCCCNCCCCNCCCN [drawing 43]

12
9.3
1.6
2
2.83
50
1.4
10

I'm hoping you can list IC50 for every compound here, please.
1. [N-]=[N+]=Nc1ccc(C(=O)N[C@@H](Cc2ccc(O)cc2)C(=O)NCCCNCCCCNCCCN)cc1 [drawing 50]
2. CCCC(=O)N[C@@H](Cc1ccc(O)cc1)C(=O)NCCCNCCCCNCCCN [drawing 41]

[4.2, 23]
